experimental_system: CFTR (Homo sapiens, UniProt P13569)
Sequence (P13569 with tags, fused parts or gaps DEL508-508): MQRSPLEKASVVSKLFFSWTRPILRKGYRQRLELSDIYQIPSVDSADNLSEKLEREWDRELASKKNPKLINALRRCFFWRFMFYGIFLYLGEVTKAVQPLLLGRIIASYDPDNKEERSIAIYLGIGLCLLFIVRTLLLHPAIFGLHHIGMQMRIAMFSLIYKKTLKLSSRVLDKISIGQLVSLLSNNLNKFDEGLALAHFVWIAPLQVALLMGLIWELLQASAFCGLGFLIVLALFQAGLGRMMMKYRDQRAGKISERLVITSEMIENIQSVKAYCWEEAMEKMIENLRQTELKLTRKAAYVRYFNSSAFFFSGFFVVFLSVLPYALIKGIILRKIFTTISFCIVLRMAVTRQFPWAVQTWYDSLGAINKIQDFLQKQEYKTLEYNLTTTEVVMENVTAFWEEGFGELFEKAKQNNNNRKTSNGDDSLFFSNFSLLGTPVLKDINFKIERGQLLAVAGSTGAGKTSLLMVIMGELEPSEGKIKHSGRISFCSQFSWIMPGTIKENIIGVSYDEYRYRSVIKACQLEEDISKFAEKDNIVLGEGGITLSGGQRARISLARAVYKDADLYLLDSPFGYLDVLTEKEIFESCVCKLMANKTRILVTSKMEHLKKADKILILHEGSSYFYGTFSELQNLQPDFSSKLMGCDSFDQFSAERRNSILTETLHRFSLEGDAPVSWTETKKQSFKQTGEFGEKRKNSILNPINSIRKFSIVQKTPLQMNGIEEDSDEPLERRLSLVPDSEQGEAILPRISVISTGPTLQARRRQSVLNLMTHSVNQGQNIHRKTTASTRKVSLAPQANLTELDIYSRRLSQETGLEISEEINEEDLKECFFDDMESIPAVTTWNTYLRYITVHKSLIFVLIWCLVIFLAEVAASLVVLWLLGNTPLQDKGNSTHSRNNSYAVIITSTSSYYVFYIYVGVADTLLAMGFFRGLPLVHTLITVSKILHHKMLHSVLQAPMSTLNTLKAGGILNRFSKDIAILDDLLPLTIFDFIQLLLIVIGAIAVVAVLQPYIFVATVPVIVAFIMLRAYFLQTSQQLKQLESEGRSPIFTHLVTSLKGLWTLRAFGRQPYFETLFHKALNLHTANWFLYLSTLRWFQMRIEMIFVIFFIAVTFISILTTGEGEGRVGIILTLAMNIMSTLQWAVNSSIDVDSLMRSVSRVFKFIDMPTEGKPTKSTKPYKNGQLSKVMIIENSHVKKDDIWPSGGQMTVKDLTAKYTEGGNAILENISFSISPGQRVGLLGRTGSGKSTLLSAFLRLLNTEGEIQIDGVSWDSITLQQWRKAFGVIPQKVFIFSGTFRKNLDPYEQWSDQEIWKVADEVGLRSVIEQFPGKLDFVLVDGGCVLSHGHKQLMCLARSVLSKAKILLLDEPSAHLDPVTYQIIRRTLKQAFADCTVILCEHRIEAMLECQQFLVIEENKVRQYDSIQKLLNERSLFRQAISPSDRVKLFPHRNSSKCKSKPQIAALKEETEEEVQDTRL
experiment_description: Membrane Potential Dye, Enteroid Assay A
Type: cell-based
condition_details: Enteroid Assay A
Procedure: Base medium (ADF+++) consisted of Advanced DMEM/Ham's F12, 2 mM Glutamax, 10 mM HEPES, […] penicillin/streptomycin. Bath 1 Buffer consisted of 1 mM MgCl2, 160 mM NaCl, 4.5 mM KCl, 10 mM HEPES, 10 mM Glucose, 2 mM CaCl2). […] Briefly, cells were washed 5 times in Bath 1 Buffer. […] Chloride transport was initiated by addition of Chloride Free Dye Stimulation Solution and the fluorescence signal was read for 15 min. […]

# compound, Ent. A Max Activity
rows = [
    ("Cc1cccc(C)c1-c1cc2nc(n1)NS(=O)(=O)c1cccc(c1)C(=O)NCC1(CCN(C[C@H]3COC(C)(C)N3C(=O)OC(C)(C)C)CC1)CO2", "++ (++ is 30-60%)"),
    ("Cc1cccc(C)c1-c1cc2nc(n1)NS(=O)(=O)c1cccc(c1)C(=O)N[C@H](CC1CC1)CO2", "+++ (+++ is >600%)"),
    ("Cc1cccc(C)c1-c1cc2nc(n1)NS(=O)(=O)c1cccc(c1)C(=O)NC(C)(C)CO2", "+++ (+++ is >600%)"),
    ("Cc1cccc(C)c1-c1cc2nc(n1)NS(=O)(=O)c1cccc(c1)C(=O)NCC1(CCN(CC3CCCCC3)CC1)CO2", "++ (++ is 30-60%)"),
]

FYI, the data here is from patent US20230382924A1.
